tested on: ATP; assay: switch fluorescence ratio, 500 uM ATP over buffer (Cy3 cluster intensity, sum of 5 cycles each) (fold (ratio)); higher = stronger signal-on switching upon ATP binding; sequences stand for … in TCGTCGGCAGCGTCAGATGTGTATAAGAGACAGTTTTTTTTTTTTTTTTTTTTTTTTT…TC; settings: aptamer strand: ATP DNA aptamer (quencher-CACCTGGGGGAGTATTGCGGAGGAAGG + anchor), 100 nM annealed; ATP concentration: 500 uM;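 further: ATP exposure 15 min at 22 °C before imaging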
Exercise: for every item that follows, state its recorded switch fluorescence ratio.
Number only, please.

Note switch fluorescence ratio for the sequence shown: ACCTTTTTCA
1.02

Note switch fluorescence ratio for the sequence shown: GACCCGATTA
1.02

Note switch fluorescence ratio for the sequence shown: TTCGGGAAAA
0.982

Note switch fluorescence ratio for the sequence shown: GGGGGGATAT
1.05

Note switch fluorescence ratio for the sequence shown: GTCAGTGTCG
0.962

Note switch fluorescence ratio for the sequence shown: TCGCTCTGTT
0.991

Note switch fluorescence ratio for the sequence shown: AACGGAGAGC
1.03

Note switch fluorescence ratio for the sequence shown: AGGGAAGGTT
0.982

Note switch fluorescence ratio for the sequence shown: TGCAAGTGAA
0.997

Note switch fluorescence ratio for the sequence shown: GTCAGAGCTA
1.01

Note switch fluorescence ratio for the sequence shown: GCTGTATTAA
0.997

Note switch fluorescence ratio for the sequence shown: GTTAGGGGAA
1.02

Note switch fluorescence ratio for the sequence shown: TAAAGAGAGA
1.03

Note switch fluorescence ratio for the sequence shown: TGAAAAAATT
1.02

Note switch fluorescence ratio for the sequence shown: GGGGTAAGAC
1.02

Note switch fluorescence ratio for the sequence shown: AGAAAGGCGG
0.971

Note switch fluorescence ratio for the sequence shown: TGCGCGCTGG
1

Note switch fluorescence ratio for the sequence shown: CTCATTGGGC
0.991

Note switch fluorescence ratio for the sequence shown: ATTTGGTAAT
0.952

Note switch fluorescence ratio for the sequence shown: GGCTTAAGCA
0.988

###

test system: ATP; experiment: switch fluorescence ratio, 500 uM ATP over buffer (Cy3 cluster intensity, sum of 5 cycles each) (fold (ratio)); higher = stronger signal-on switching upon ATP binding; sequences stand for … in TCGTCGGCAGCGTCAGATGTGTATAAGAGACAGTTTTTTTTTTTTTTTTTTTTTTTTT…TC; conditions: aptamer strand: ATP DNA aptamer (quencher-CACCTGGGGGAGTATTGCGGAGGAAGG + anchor), 100 nM annealed; ATP concentration: 500 uM;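 further: ATP exposure 15 min at 22 °C before imaging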
Given measured switch fluorescence ratio, output Condition met if it is greater than or equal to 1 and Condition not met if not.

Tell me whether switch fluorescence ratio is at least 1 here: TACTCCGTTT
Condition met

Tell me whether switch fluorescence ratio is at least 1 here: TGACTTTGAT
Condition not met

Tell me whether switch fluorescence ratio is at least 1 here: TCTGTCCG
Condition met

Tell me whether switch fluorescence ratio is at least 1 here: TTTTGTACAA
Condition met

Tell me whether switch fluorescence ratio is at least 1 here: GGGTGCGGCT
Condition met

Tell me whether switch fluorescence ratio is at least 1 here: TTACGTTCTT
Condition met

Tell me whether switch fluorescence ratio is at least 1 here: CGCTTAACGT
Condition met

Tell me whether switch fluorescence ratio is at least 1 here: GTTACGGGAC
Condition met

Tell me whether switch fluorescence ratio is at least 1 here: AAGTAAAAAT
Condition met

Tell me whether switch fluorescence ratio is at least 1 here: ATCTTGTGTC
Condition not met

Tell me whether switch fluorescence ratio is at least 1 here: GTAGCATATT
Condition met

Tell me whether switch fluorescence ratio is at least 1 here: TAGGGGGGCC
Condition not met

Tell me whether switch fluorescence ratio is at least 1 here: GAAGCAGGGG
Condition met

Tell me whether switch fluorescence ratio is at least 1 here: TCTTGGGGAC
Condition met

Tell me whether switch fluorescence ratio is at least 1 here: TTGTGTTGCG
Condition met

Tell me whether switch fluorescence ratio is at least 1 here: CGCCATTACG
Condition met

Tell me whether switch fluorescence ratio is at least 1 here: GCGTTGTGGG
Condition met

Tell me whether switch fluorescence ratio is at least 1 here: CAGTAGGCAG
Condition not met

###

test system: ATP; experiment: switch fluorescence ratio, 500 uM ATP over buffer (Cy3 cluster intensity, sum of 5 cycles each) (fold (ratio)); higher = stronger signal-on switching upon ATP binding; sequences stand for … in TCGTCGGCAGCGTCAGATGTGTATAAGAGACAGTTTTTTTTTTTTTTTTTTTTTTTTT…TC; conditions: aptamer strand: ATP DNA aptamer (quencher-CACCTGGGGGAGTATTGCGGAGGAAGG + anchor), 100 nM annealed; ATP concentration: 500 uM;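 further: ATP exposure 15 min at 22 °C before imaging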
attribute.measured: switch fluorescence ratio
Number only, please.

Note switch fluorescence ratio for the sequence shown: CAGGAAGGGA
0.996

Note switch fluorescence ratio for the sequence shown: GCTTGAAATT
0.986

Note switch fluorescence ratio for the sequence shown: ACGCGATAAC
4.27

Note switch fluorescence ratio for the sequence shown: CGTGAAGGGT
0.992

Note switch fluorescence ratio for the sequence shown: GCGGTACGGT
1.03

Note switch fluorescence ratio for the sequence shown: GGCGCAGGAG
1.09

Note switch fluorescence ratio for the sequence shown: AGGGGCGGGG
0.995

Note switch fluorescence ratio for the sequence shown: ACGATAGTTA
0.992

Note switch fluorescence ratio for the sequence shown: TTGGGGGTGC
0.997

Note switch fluorescence ratio for the sequence shown: TTTTTGTGGT
1

Note switch fluorescence ratio for the sequence shown: TTTCATCCTG
1.03

Note switch fluorescence ratio for the sequence shown: CGTCTGAATG
0.998

Note switch fluorescence ratio for the sequence shown: TTCCATGGCA
1.04

Note switch fluorescence ratio for the sequence shown: CTCTCTTTGA
0.963

Note switch fluorescence ratio for the sequence shown: CAGGGGTTTT
1.32

Note switch fluorescence ratio for the sequence shown: CATGATCTCT
0.987

Note switch fluorescence ratio for the sequence shown: TTAAGCGTAG
1.01

Note switch fluorescence ratio for the sequence shown: AGAATATGGG
0.994

Note switch fluorescence ratio for the sequence shown: TGAGTTTTAC
1.04

Note switch fluorescence ratio for the sequence shown: CGGGGTTTTT
1.03

Note switch fluorescence ratio for the sequence shown: CAAGTTTGTA
0.997

Note switch fluorescence ratio for the sequence shown: AACTCTAGCA
1.07

Note switch fluorescence ratio for the sequence shown: TTCCCGGTGT
1.75

Note switch fluorescence ratio for the sequence shown: TTTGGCAGGT
1.03

Note switch fluorescence ratio for the sequence shown: GGGGTATACT
1.02

Note switch fluorescence ratio for the sequence shown: ATTTAATTAC
1.02

Note switch fluorescence ratio for the sequence shown: GGGGGGTGTG
0.986

Note switch fluorescence ratio for the sequence shown: TTCTGGGGGA
0.992

Note switch fluorescence ratio for the sequence shown: AGGTTGAGGA
0.964

Note switch fluorescence ratio for the sequence shown: CGTATTTGGG
0.999

Note switch fluorescence ratio for the sequence shown: ATTGAGCTGT
0.981

Note switch fluorescence ratio for the sequence shown: TTTGATAATA
1.02

Note switch fluorescence ratio for the sequence shown: GTGTTAGATC
0.98

Note switch fluorescence ratio for the sequence shown: AGGGTTGGCA
0.998

Note switch fluorescence ratio for the sequence shown: ATCAGGGGTA
1.26

Note switch fluorescence ratio for the sequence shown: ATGCATGAAA
1

Note switch fluorescence ratio for the sequence shown: GAATCGTAGC
1

Note switch fluorescence ratio for the sequence shown: GGTCATTTAG
0.994

Note switch fluorescence ratio for the sequence shown: ATAAAAAGGG
1

Note switch fluorescence ratio for the sequence shown: TAAGGCACGC
1.01

Note switch fluorescence ratio for the sequence shown: GCCGGGTTGA
1.03

Note switch fluorescence ratio for the sequence shown: GGGCAACGAC
1.07

Note switch fluorescence ratio for the sequence shown: AACGGTCAGA
1.02

###

system: ATP; assay: switch fluorescence ratio, 500 uM ATP over buffer (Cy3 cluster intensity, sum of 5 cycles each) (fold (ratio)); higher = stronger signal-on switching upon ATP binding; sequences stand for … in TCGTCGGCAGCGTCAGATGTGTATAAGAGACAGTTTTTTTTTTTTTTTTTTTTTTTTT…TC; details: aptamer strand: ATP DNA aptamer (quencher-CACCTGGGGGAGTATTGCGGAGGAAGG + anchor), 100 nM annealed; ATP concentration: 500 uM;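 further: ATP exposure 15 min at 22 °C before imaging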
Exercise: for every item that follows, state its recorded switch fluorescence ratio.
Number only, please.

Note switch fluorescence ratio for the sequence shown: TGGGGTGGTG
0.999

Note switch fluorescence ratio for the sequence shown: AAAAAAATTG
1

Note switch fluorescence ratio for the sequence shown: TCGGTATGAC
1.07

Note switch fluorescence ratio for the sequence shown: AATCGGTGGG
0.997

Note switch fluorescence ratio for the sequence shown: TTGCGGGGTA
0.978

Note switch fluorescence ratio for the sequence shown: CGTGTTGGTA
0.987

Note switch fluorescence ratio for the sequence shown: GATATTGGTG
1.02

Note switch fluorescence ratio for the sequence shown: AAACTTAATA
1.14

Note switch fluorescence ratio for the sequence shown: AGTGTTGTGG
0.99

Note switch fluorescence ratio for the sequence shown: AAATGAGTGG
0.978

Note switch fluorescence ratio for the sequence shown: CCTGTACCAC
1.07

Note switch fluorescence ratio for the sequence shown: GATTTGAAAC
1

Note switch fluorescence ratio for the sequence shown: TTTCGGGTGC
1.05

Note switch fluorescence ratio for the sequence shown: GTAAGGAGGG
0.981

Note switch fluorescence ratio for the sequence shown: ATCCTGGGTG
3.73

Note switch fluorescence ratio for the sequence shown: TGGACTGGGG
0.986

Note switch fluorescence ratio for the sequence shown: CTATGAATTT
0.995

Note switch fluorescence ratio for the sequence shown: AATAGTGGCA
1.02

Note switch fluorescence ratio for the sequence shown: CAAGGCTTGA
0.974

Note switch fluorescence ratio for the sequence shown: TTTTTACGTG
0.969
